Origin of measurements: patent US5008252A

Tested on: HSV-1 (strain KOS)-infected HeLa BU cells
Test: Virus yield assay
Type: cell-based
Settings: Table II; drug (μM as in row; None = 5'-Et-dThd alone) plus 2.5 μM 5'-Et-dThd
endpoint: % PFU with a 5'-Et-dThd conc. of 2.5 μM (%)
Write the value in % as a bare number.

Completed entries (count: 4):
{"molecule": "Nc1nc2c(ncn2COC(CO)CO)c(=O)[nH]1", "unit annotation": "%", "% PFU with a 5'-Et-dThd conc. of 2.5 μM": 0.2}
{"molecule": "Nc1nc2c(ncn2COCCO)c(=O)[nH]1", "unit annotation": "%", "% PFU with a 5'-Et-dThd conc. of 2.5 μM": 9}
{"molecule": "Cc1cn([C@H]2C[C@H](O)[C@@H](CN)O2)c(=O)[nH]c1=O", "unit annotation": "%", "% PFU with a 5'-Et-dThd conc. of 2.5 μM": 0.3}
{"molecule": "O=c1[nH]c(=O)n([C@H]2C[C@H](O)[C@@H](CO)O2)cc1/C=C/Br [BVDU, (E)-5-(2-bromovinyl)-2'-deoxyuridine]", "unit annotation": "%", "% PFU with a 5'-Et-dThd conc. of 2.5 μM": 9.5}

Attention now turns to another entry.
Short answer for Nc1nc(=O)n([C@@H]2O[C@H](CO)[C@@H](O)[C@@H]2F)cc1I : % PFU with a 5'-Et-dThd conc. of 2.5 μM was 26
